test system: MS2 coat protein; test: apparent KD of MS2 coat protein, switch ON state; designed switch direction (-1 OFF switch, 1 ON switch): -1; higher = weaker reporter binding; conditions: FMN input: 0 or 200 uM; Eterna round: R93 (includes R88 designs)
Hi, to clarify the labels: 1 covers apparent KD of MS2 coat protein from 40 nM upward, -1 covers anything below 40 nM.

Examples with answers:
Is apparent KD of MS2 coat protein for AAAAAACAUGAGGAUCACCCAUGUGAGGAUAUCGGAAAAGGAAAAAUAAAAAAGAAGACGAGAAGGCACACCAA [Mat - Exclusion 1 - Eli mod - D74] at or above 40 nM? -1

Is reported apparent KD of MS2 coat protein greater than or equal to 40 nM here: GGGUAGUCAGGAUAUACAAACAUGUCAAAAGACGUGAAAAAACAUGAGGAUCACCCAUGUAGAAGGGACUACCC [Mat - Exclusion 2 - JL mod - D20] -1

Dear colleague, could you confirm whether UAAAGACAUGAGGAUCACCCAUGUGAGGAUAUAGGUGUAUGCAAAAAAAAGCAAAAAACUAGAAGGCACAGAAA [JR_Exc001_Sub304] has apparent KD of MS2 coat protein at or above 40 nM? 1

hey, is apparent KD of MS2 coat protein for this one >= 40 nM? AAAUUGUCAGGAUAUCUUAGAAUAGUCAAAGACUAGAGCUAAGAGAAGGGACAUGAGGAUCACCCAUGUAAAAC [May 91] 1

Assess whether reported apparent KD of MS2 coat protein for AGCUAGUCAGGAUAUACGAACAUGUAAAAAGACGUGAAGGGACAUGAGGAUCACCCAUGUAGAAGGGACUAGAA [74%, Web mod - With 2 less C's] sits at 40 nM or higher. 1

Now, please, on to the next sequence.
Identify whether the reported apparent KD of MS2 coat protein of the following sequence is 40 nM or greater: AGCUAGUCAGGAUAUACGAAAACGAACGAAGCUGAGAAGGGACAUGAGGAUCACCCAUGUAGAAGGGACUAGCA [Diamond 33] -1
